From: paper PMC7038937

- tested_target: dsRBD3/4 F109A (Homo sapiens, UniProt O95793-2 102-274, F109A)
- Sequence (O95793 183-355 F190A): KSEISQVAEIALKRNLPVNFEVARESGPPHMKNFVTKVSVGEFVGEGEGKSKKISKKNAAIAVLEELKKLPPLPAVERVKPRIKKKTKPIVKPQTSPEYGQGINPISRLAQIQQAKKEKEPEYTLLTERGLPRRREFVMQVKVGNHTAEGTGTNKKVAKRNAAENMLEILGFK
- test_protocol: fluorescence anisotropy
quantity_measured: pKd
Numbers only, as −log10 of the molar value.

# input binder: GGCAGAAGCUGCCUCUUCGGAGGCAGUUUCUGCC (structured_RNA) [top 2/3 ARF1 SBS (sARF1 SBS)] ; wanted: its pKd
7.53
